- Tested on: 624824-186-R-J3-PDC multicell spheroids, viability;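 also: luminescent signal used as a stand-in for spheroid viability; spheroids exposed to agents for seven days before luminescence read; percent viability relative to DMSO vehicle control wells taken as 100%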
- Procedure Summary: Anticancer human tumor 624824-186-R-J3-PDC patient-derived colon adenocarcinoma cell line growth inhibition [PI3K]
- Run Parameters: second compound 0.01 µM; first compound 3.16 µM; hits give low values
Quantity: viability, T/C

Below, 4 molecules whose answers are already recorded.
{"columns": ["Molecule", "Value Reported"],
 "data": [
  ["CC(C)NCC(C(=O)N1CCN(c2ncnc3c2C(C)CC3O)CC1)c1ccc(Cl)cc1 (stereo not given) + CC(Nc1ccc2c(c1)OCCn1cc(N3C(=O)OCC3C(F)F)nc1-2)C(N)=O", "63.8%"],
  ["CCCS(=O)(=O)Nc1ccc(F)c(C(=O)c2c[nH]c3ncc(-c4ccc(Cl)cc4)cc23)c1F + CC(Nc1ccc2c(c1)OCCn1cc(N3C(=O)OCC3C(F)F)nc1-2)C(N)=O", "67.9%"],
  ["CC1(C)CCC(Nc2ncc(C(F)(F)F)c(-c3c[nH]c4c(P(C)(C)=O)c(C#N)ccc34)n2)CN1 (stereo not given) + CC(Nc1ccc2c(c1)OCCn1cc(N3C(=O)OCC3C(F)F)nc1-2)C(N)=O", "84.2%"],
  ["CC1(C)CCC(CN2CCN(c3ccc(C(=O)NS(=O)(=O)c4ccc(NCC5CCOCC5)c([N+](=O)[O-])c4)c(Oc4cnc5[nH]ccc5c4)c3)CC2)=C(c2ccc(Cl)cc2)C1 + COc1c(OCCCN2CCOCC2)ccc2c3n(c(=NC(=O)c4cnc(N)nc4)nc12)CCN3", "105%"]
]}

Lab note: next molecule to report on.
Entry CC1(C)CCC(CN2CCN(c3ccc(C(=O)NS(=O)(=O)c4ccc(NCC5CCOCC5)c([N+](=O)[O-])c4)c(Oc4cnc5[nH]ccc5c4)c3)CC2)=C(c2ccc(Cl)cc2)C1 + CC(Nc1ccc2c(c1)OCCn1cc(N3C(=O)OCC3C(F)F)nc1-2)C(N)=O , viability, T/C reported as 114%

Origin of the recorded values: PubChem BioAssay AID1963977
